ASSAYED TARGET: Metabotropic glutamate receptor 6 (Homo sapiens, UniProt O15303)
Sequence (O15303 whole entry): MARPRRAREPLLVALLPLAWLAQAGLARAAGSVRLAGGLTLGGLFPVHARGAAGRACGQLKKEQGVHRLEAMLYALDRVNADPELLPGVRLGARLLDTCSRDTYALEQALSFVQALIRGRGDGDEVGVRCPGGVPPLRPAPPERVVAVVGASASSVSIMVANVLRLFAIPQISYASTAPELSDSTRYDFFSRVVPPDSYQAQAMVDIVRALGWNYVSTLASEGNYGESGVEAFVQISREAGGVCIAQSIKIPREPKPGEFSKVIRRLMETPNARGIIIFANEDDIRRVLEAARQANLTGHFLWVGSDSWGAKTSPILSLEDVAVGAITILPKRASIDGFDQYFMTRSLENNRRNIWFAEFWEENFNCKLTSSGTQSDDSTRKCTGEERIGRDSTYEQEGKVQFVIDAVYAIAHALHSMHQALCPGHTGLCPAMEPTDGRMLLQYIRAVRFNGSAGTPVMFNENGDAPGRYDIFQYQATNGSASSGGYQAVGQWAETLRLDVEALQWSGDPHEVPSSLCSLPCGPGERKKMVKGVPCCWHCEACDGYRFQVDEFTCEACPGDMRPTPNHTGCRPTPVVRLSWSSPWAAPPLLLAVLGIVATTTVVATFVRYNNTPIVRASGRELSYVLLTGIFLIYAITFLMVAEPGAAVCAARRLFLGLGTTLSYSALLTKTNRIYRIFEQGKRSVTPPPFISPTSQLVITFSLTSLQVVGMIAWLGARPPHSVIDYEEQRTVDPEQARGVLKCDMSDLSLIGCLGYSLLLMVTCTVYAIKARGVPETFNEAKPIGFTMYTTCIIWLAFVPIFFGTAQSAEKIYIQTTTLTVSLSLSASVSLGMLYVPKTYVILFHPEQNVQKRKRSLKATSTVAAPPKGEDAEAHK
EXPERIMENT NOTES: Agonist activity at human mGlu6 receptor expressed in golden Syrian hamster AV12 cells coexpressing EAAT1 assessed as inhibition of forskolin-stimulated cAMP production after 20 mins by FLIPR assay
Measured EC50 values are reported for all entries that follow.
PROPERTY MEASURED: EC50

1) C=C1C[C@@](N)(C(=O)O)[C@H]2[C@@H]1[C@@H]2C(=O)O: 0.267 µM
2) [N-]=[N+]=N[C@H]1C[C@@](N)(C(=O)O)[C@@H]2[C@@H](C(=O)O)[C@@H]21: 1.89 µM
3) N[C@@]1(C(=O)O)CC(=O)[C@H]2[C@H](C(=O)O)[C@H]21: 1.38 µM
4) N[C@@]1(C(=O)O)C[C@H](O)[C@H]2[C@H](C(=O)O)[C@H]21: 3.04 µM
